Data origin: ChEMBL document CHEMBL4725497

Entries annotated with measured AUC
experiment: AUC in rat at 1 mg/kg, po; assay type: ADME, organism-based; design: dose 1 mg/kg; settings: in vivo
Give the value in µM·h but do not write µM·h after it.

Query string: Give the measured AUC of C[C@@H]1Cc2c(ccc3[nH]nc(F)c23)[C@@H](c2ncc(NC3CN(CCCF)C3)cc2F)N1CC(F)(F)F .
Result string: 0.76

# evaluate next
Query string: Query (molecule): C[C@@H]1Cc2c(ccc3[nH]ncc23)[C@@H](c2ccc(NC3CN(CCCF)C3)c(F)n2)N1CC(F)(F)F ; field requested: AUC
Result string: 0.22

###

assay: Efflux ratio of intrinsic permeability from basolateral to apical side over apical to basolateral side in human Caco2 cells at 7.4:7.4 apical: basolateral pH at 10 uM; format: ADME, cell-based; conditions: Caco-2, pH 7.4
Property: efflux ratio at 10 µM
Response field accepts a number only; no unit should be typed.

Query string: If you can, please state the reported efflux ratio at 10 µM value of C[C@@H]1Cc2c(ccc3[nH]nc(F)c23)[C@@H](c2ncc(NC3CN(CCCF)C3)cc2F)N1CC(F)(F)F .
Result string: 1.4

Please find the next compound below.
Query string: Consider the compound shown here: C[C@@H]1Cc2c(ccc3[nH]ncc23)[C@@H](c2ncc(NC3CN(CCCF)C3)cc2F)N1CC(F)(F)F What is its recorded efflux ratio at 10 µM?
Result string: 7

###

Here the recorded hepatocyte CLint is given for each entry.
experiment: Intrinsic clearance in rat hepatocytes assessed rate of metabolism per 10^6 cells; format: ADME, cell-based, Hepatocyte; details: read-out: CLH
// units = µL/min/1e6 cells; emit number, no label

Sample answers from the record:
Query string: Would you kindly share the measured hepatocyte CLint for C[C@@H]1Cc2c(ccc3[nH]nc(F)c23)[C@@H](c2ccc(NC3CN(CCCF)C3)c(F)n2)N1CC(F)(F)F ?
Result string: 10

Query string: Same again, this time with COc1cc2[nH]ncc2c2c1[C@@H](c1ccc(NC3CN(CCCF)C3)cn1)N(CC(F)(F)F)[C@H](C)C2
Result string: 6

Query string: Now this one: C[C@@H]1Cc2c(c(O)cc3[nH]ncc23)[C@@H](c2ccc(NC3CN(CCCF)C3)cn2)N1CC(F)(F)F
Result string: 11

Query string: Now give it for C[C@@H]1Cc2c(ccc3[nH]ncc23)[C@@H](c2ccc(NC3CN(CCCF)C3)c(F)n2)N1CC(F)(F)F too.
Result string: 36

Query string: Similarly, C[C@@H]1Cc2c(c(F)cc3[nH]ncc23)[C@@H](c2ccc(NC3CN(CCCF)C3)cn2)N1CC(F)(F)F ?
Result string: 11

Query string: What about this molecule? FCCCN1CC(Nc2ccc([C@@H]3c4ccc5[nH]ncc5c4C[C@@H](C(F)F)N3CC(F)F)nc2)C1
Result string: 32

Others:
Query string: Name the recorded hepatocyte CLint for C[C@@H]1Cc2c(ccc3[nH]ncc23)[C@@H](c2ncc(NC3CN(CCCF)C3)cc2F)N1CC(F)(F)CF .
Result string: 55

Query string: // repeat for C[C@@H]1Cc2c(ccc3[nH]ncc23)[C@@H](c2ncc(NC3CN(CCCF)C3)cc2F)N1CC(F)(F)F and report
Result string: 24

Query string: Also check C[C@@H]1Cc2c(ccc3[nH]nc(F)c23)[C@@H](c2ncc(NC3CN(CCCF)C3)cc2F)N1CC(F)(F)F
Result string: 10

Query string: Query C[C@@H]1Cc2c(cc(F)c3[nH]ncc23)[C@@H](c2ccc(NC3CN(CCCF)C3)cn2)N1CC(F)(F)F next
Result string: 20

###

experiment: Fraction unbound in human plasma by equilibrium dialysis method; format: ADME, cell-free
Mark satisfied for reported fraction unbound of 0.2 or greater; mark not satisfied for anything smaller.

Query string: Form field: fraction unbound at least 0.2? Entry: C[C@@H]1Cc2c(ccc3[nH]nc(F)c23)[C@@H](c2ncc(NC3CN(CCCF)C3)cc2F)N1CC(F)(F)F
Result string: not satisfied

Query string: Item: C[C@@H]1Cc2c(ccc3[nH]ncc23)[C@@H](c2ncc(NC3CN(CCCF)C3)cc2F)N1CC(F)(F)F
Result string: not satisfied

Query string: What would you report for C[C@@H]1Cc2c(ccc3[nH]ncc23)[C@@H](c2ccc(NC3CN(CCCF)C3)c(F)n2)N1CC(F)(F)F ?
Result string: not satisfied

Query string: Also, C[C@@H]1Cc2c(c(F)cc3[nH]ncc23)[C@@H](c2ccc(NC3CN(CCCF)C3)cn2)N1CC(F)(F)F please.
Result string: not satisfied

Others:
Query string: Answer whether fraction unbound of C[C@@H]1Cc2c(ccc3[nH]nc(F)c23)[C@@H](c2ccc(NC3CN(CCCF)C3)c(F)n2)N1CC(F)(F)F is greater than or equal to 0.2.
Result string: not satisfied

Query string: Same for COc1cc2[nH]ncc2c2c1[C@@H](c1ccc(NC3CN(CCCF)C3)cn1)N(CC(F)(F)F)[C@H](C)C2
Result string: satisfied

Query string: Queued: FCCCN1CC(Nc2ccc([C@@H]3c4ccc5[nH]ncc5c4C[C@@H](C(F)F)N3CC(F)F)nc2)C1
Result string: satisfied

Query string: Also check C[C@@H]1Cc2c(cc(F)c3[nH]ncc23)[C@@H](c2ccc(NC3CN(CCCF)C3)cn2)N1CC(F)(F)F
Result string: not satisfied

###

Recorded Activity values for a group of compounds are listed next.
biological target: Estrogen receptor (Homo sapiens); experiment: Induction of ERalpha degradation in human MCF7 cells at 0.1 uM incubated for 18 to 22 hrs immuno-fluorescence assay relative to control; format: cell-based
Provide only the numeric value, understood in %.

Some compounds with recorded Activity:
Query string: Need Activity, item C[C@@H]1Cc2c(ccc3[nH]ncc23)[C@@H](c2ccc(NC3CN(CCCF)C3)cn2)N1CC(F)(F)F [CAMIZESTRANT]
Result string: 99

Query string: Consider next the compound C[C@@H]1Cc2c(c(F)cc3[nH]ncc23)[C@@H](c2ccc(NC3CN(CCCF)C3)cn2)N1CC(F)(F)F in the same way.
Result string: 95

Query string: Another compound to check: C[C@@H]1Cc2c(cc(F)c3[nH]ncc23)[C@@H](c2ccc(NC3CN(CCCF)C3)cn2)N1CC(F)(F)F
Result string: 98

Consider now this further compound.
Query string: Which value of Activity has been reported for C[C@@H]1Cc2c(ccc3[nH]nc(F)c23)[C@@H](c2ncc(NC3CN(CCCF)C3)cc2F)N1CC(F)(F)F in the records?
Result string: 99

###

Reported IC50 values follow for various compounds
biological target: Estrogen receptor (Homo sapiens, UniProt P03372); test: Displacement of fluorescent labelled fluormone ES2 from human recombinant GST tagged ER alpha LBD ( 282 to 595 residues) expressed in baculovirus infected insect cells incubate for 20 mins measured after 1 hr by TR-FRET Lanthascreen assay
Sequence (P03372 whole entry, the tested form may be a part): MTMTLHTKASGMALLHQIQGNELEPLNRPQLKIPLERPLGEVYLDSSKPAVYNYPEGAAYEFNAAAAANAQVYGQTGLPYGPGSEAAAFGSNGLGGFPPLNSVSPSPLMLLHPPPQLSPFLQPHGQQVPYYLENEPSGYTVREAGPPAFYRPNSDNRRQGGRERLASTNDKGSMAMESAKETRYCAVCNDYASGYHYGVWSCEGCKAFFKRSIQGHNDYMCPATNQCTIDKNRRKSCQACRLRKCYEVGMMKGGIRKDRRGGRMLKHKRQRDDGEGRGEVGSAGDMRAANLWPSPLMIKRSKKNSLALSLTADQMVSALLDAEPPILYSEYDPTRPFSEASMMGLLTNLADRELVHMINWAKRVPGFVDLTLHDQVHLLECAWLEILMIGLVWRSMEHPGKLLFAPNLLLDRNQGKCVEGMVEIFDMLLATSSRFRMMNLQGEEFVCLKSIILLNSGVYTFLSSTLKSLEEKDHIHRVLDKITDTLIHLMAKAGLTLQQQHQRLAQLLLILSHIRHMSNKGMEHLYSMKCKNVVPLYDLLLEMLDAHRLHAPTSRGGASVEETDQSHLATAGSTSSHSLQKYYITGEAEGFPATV
Supply the numeric figure in nM, leaving out any unit text.

Study these solved cases before continuing.
Query string: I am curious: what IC50 value has been reported for COc1cc2[nH]ncc2c2c1[C@@H](c1ccc(NC3CN(CCCF)C3)cn1)N(CC(F)(F)F)[C@H](C)C2 ?
Result string: 501

Query string: # repeat for C[C@@H]1Cc2c(ccc3[nH]ncc23)[C@@H](c2ncc(NC3CN(CCCF)C3)cc2F)N1CC(F)(F)F
Result string: 2

Query string: Another: C[C@@H]1Cc2c(ccc3[nH]nc(F)c23)[C@@H](c2ncc(NC3CN(CCCF)C3)cc2F)N1CC(F)(F)F
Result string: 1.26

***
Query string: Can you share its IC50? I mean this compound: C[C@@H]1Cc2c(c(O)cc3[nH]ncc23)[C@@H](c2ccc(NC3CN(CCCF)C3)cn2)N1CC(F)(F)F
Result string: 39.8

Query string: Would you mind doing C[C@@H]1Cc2c(cc(F)c3[nH]ncc23)[C@@H](c2ccc(NC3CN(CCCF)C3)cn2)N1CC(F)(F)F as well?
Result string: 0.501

Query string: # repeat for C[C@@H]1Cc2c(ccc3[nH]nc(F)c23)[C@@H](c2ccc(NC3CN(CCCF)C3)c(F)n2)N1CC(F)(F)F
Result string: 1

Query string: C[C@@H]1Cc2c(c(F)cc3[nH]ncc23)[C@@H](c2ccc(NC3CN(CCCF)C3)cn2)N1CC(F)(F)F ?
Result string: 15.8

###

biological target: Estrogen receptor (Homo sapiens) (UniProt P03372); assay: Induction of ERalpha degradation in human MCF7 cells at 0.1 uM incubated for 18 to 22 hrs immuno-fluorescence assay relative to control; format: cell-based
Sequence (P03372 whole entry): as the sequence (P03372 whole entry, the tested form may be a part) above
Property: Activity (%)
State just the number; it will be interpreted in %.

Look over these answered cases.
Query string: Looking for the measured Activity of C[C@@H]1Cc2c(ccc3[nH]nc(F)c23)[C@@H](c2ccc(NC3CN(CCCF)C3)c(F)n2)N1CC(F)(F)F , can you help?
Result string: 99

Query string: Further, for C[C@@H]1Cc2c(ccc3[nH]ncc23)[C@@H](c2ccc(NC3CN(CCCF)C3)cn2)N1CC(F)F ?
Result string: 99

Query string: Follow-up item: C[C@@H]1Cc2c(ccc3[nH]ncc23)[C@@H](c2ccc(NC3CN(CCCF)C3)c(F)n2)N1CC(F)(F)F
Result string: 98

Query string: Same question for C[C@@H]1Cc2c(ccc3[nH]ncc23)[C@@H](c2ncc(NC3CN(CCCF)C3)cc2F)N1CC(F)(F)CF please.
Result string: 98

Query string: Next molecule: COc1cc2[nH]ncc2c2c1[C@@H](c1ccc(NC3CN(CCCF)C3)cn1)N(CC(F)(F)F)[C@H](C)C2
Result string: 40

Query string: Then this molecule: FCCCN1CC(Nc2ccc([C@@H]3c4ccc5[nH]ncc5c4C[C@@H](C(F)F)N3CC(F)F)nc2)C1
Result string: 97

Next item in the queue.
Query string: For the molecule C[C@@H]1Cc2c(ccc3[nH]ncc23)[C@@H](c2ncc(NC3CN(CCCF)C3)cc2F)N1CC(F)(F)F , what Activity is on record?
Result string: 98
